# System: E. coli TF (trigger factor), full-length (Escherichia coli)
# Construct: His6 (N); made in house
# Sequence (P0A850 whole entry): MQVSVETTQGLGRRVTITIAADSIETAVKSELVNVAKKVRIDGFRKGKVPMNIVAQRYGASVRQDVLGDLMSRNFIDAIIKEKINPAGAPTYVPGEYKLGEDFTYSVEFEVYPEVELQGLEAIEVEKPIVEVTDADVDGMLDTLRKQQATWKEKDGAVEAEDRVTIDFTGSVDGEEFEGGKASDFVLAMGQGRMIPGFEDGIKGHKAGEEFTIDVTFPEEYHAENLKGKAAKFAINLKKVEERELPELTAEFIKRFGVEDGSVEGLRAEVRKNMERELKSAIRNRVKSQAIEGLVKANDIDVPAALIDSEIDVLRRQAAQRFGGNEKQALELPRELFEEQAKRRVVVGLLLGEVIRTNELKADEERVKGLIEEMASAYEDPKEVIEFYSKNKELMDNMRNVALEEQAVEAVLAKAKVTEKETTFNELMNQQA
# Procedure Details: Fluorescence polarization analysis of TF binding to FITC-labeled peptides
# Conditions: N-terminally FITC-labeled peptide 1 µM, full-length TF 0.1-1000 µM, 20 mM Tris pH 7.4, 100 mM NaCl, ex 485 nm / em 535 nm, one-site binding model, errors from three technical replicates
Where no end group is shown, it is not given here.
Measured Quantity: pKd
Friendly reminder that pKd comes from taking -log10 of the concentration in mol/L.

Request - read-out pKd | tested on E. coli TF (trigger factor), full-length (Escherichia coli) | sequence YICLRPVRYYQGT [IcdH2] 5.07

Next:
Request - read-out pKd | tested on E. coli TF (trigger factor), full-length (Escherichia coli) | sequence KFLREEMGVKKIRFPEHC [IcdH3] 3.88

Request - read-out pKd | tested on E. coli TF (trigger factor), full-length (Escherichia coli) | sequence KAYKGERKISWMEIYT [IcdH1] 4.55
